target: Tumor necrosis factor (Homo sapiens); assay: Inhibition of TNFalpha (unknown origin)-induced NF-kappaB activation in mouse NIH/3T3 cells assessed as inhibition of NF-kappaB binding to DNA at 20 uM after 6 hrs by luciferase reporter gene assay; type: cell-based; conditions: NIH3T3
Active and inactive are the calls of the source. The rule behind the calls is not given here.
Log the outcome using a class from True = active, False = inactive

Prompt: Per the assay record, what outcome was assigned to `COC(=O)[C@@H]1C(c2ccc(Cl)cc2)=NO[C@H]1c1cc(OC)c(O)c2c1C[C@@H]1[C@@H]3C=C(OC)C(=O)C[C@]23CCN1C` ?
Completion: False

Prompt: Per the assay record, what outcome was assigned to `CCCCOC(=O)/C=C/c1cc(OC)c(O)c2c1C[C@@H]1[C@@H]3C=C(OC)C(=O)C[C@]23CCN1C` ?
Completion: True

Prompt: Per the assay record, what outcome was assigned to `COC(=O)[C@H]1C(c2ccc(OC)cc2)=NO[C@@H]1c1cc(OC)c(O)c2c1C[C@@H]1[C@@H]3C=C(OC)C(=O)C[C@]23CCN1C` ?
Completion: True

Prompt: Per the assay record, what outcome was assigned to `COC1=C[C@@H]2[C@@H]3Cc4ccc(OC)c(O)c4[C@]2(CCN3C)CC1=O` ?
Completion: False

Prompt: Per the assay record, what outcome was assigned to `CCCCCCOC(=O)/C=C/c1cc(OC)c(O)c2c1C[C@@H]1[C@@H]3C=C(OC)C(=O)C[C@]23CCN1C` ?
Completion: True

Prompt: Per the assay record, what outcome was assigned to `COC(=O)[C@H]1C(c2cccc(C)c2)=NO[C@@H]1c1cc(OC)c(O)c2c1C[C@@H]1[C@@H]3C=C(OC)C(=O)C[C@]23CCN1C` ?
Completion: True

Prompt: Per the assay record, what outcome was assigned to `COC(=O)[C@@H]1C(c2ccc(OC)cc2)=NO[C@H]1c1cc(OC)c(O)c2c1C[C@@H]1[C@@H]3C=C(OC)C(=O)C[C@]23CCN1C` ?
Completion: False

Prompt: Per the assay record, what outcome was assigned to `COC(=O)[C@@H]1C(c2ccc(C)cc2)=NO[C@H]1c1cc(OC)c(O)c2c1C[C@@H]1[C@@H]3C=C(OC)C(=O)C[C@]23CCN1C` ?
Completion: True

Prompt: Per the assay record, what outcome was assigned to `COC(=O)[C@H]1C(c2ccc(Cl)cc2)=NO[C@@H]1c1cc(OC)c(O)c2c1C[C@@H]1[C@@H]3C=C(OC)C(=O)C[C@]23CCN1C` ?
Completion: True

Prompt: Per the assay record, what outcome was assigned to `COC(=O)[C@H]1C(c2ccccc2)=NO[C@@H]1c1cc(OC)c(O)c2c1C[C@@H]1[C@@H]3C=C(OC)C(=O)C[C@]23CCN1C` ?
Completion: True

Prompt: Per the assay record, what outcome was assigned to `COC(=O)[C@@H]1C(c2ccccc2)=NO[C@H]1c1cc(OC)c(O)c2c1C[C@@H]1[C@@H]3C=C(OC)C(=O)C[C@]23CCN1C` ?
Completion: False

Prompt: Per the assay record, what outcome was assigned to `COC(=O)[C@@H]1C(c2ccc(Br)cc2)=NO[C@H]1c1cc(OC)c(O)c2c1C[C@@H]1[C@@H]3C=C(OC)C(=O)C[C@]23CCN1C` ?
Completion: False

Prompt: Per the assay record, what outcome was assigned to `COC(=O)[C@H]1C(c2cccc(Cl)c2)=NO[C@@H]1c1cc(OC)c(O)c2c1C[C@@H]1[C@@H]3C=C(OC)C(=O)C[C@]23CCN1C` ?
Completion: True
